Ref: PubChem BioAssay (NCI)

- System: 786-0 renal
- assayProcedure: NCI-60 one-dose screen, 48 h
- cond: 10 µM unless noted
This is part of a sample that, as a whole, favours compounds with a hit. Of some 83,000 tested, about 20% had one in any assay. Active and inactive are the calls of the source. The calls were made as follows: active = growth percent below 10; inactive = the rest.
Outcome codes: active, inactive

compound	className
NC(=O)c1c(Br)n(C2OC(CO)C(O)C2O)c2ncnc(N)c12 (stereo not given)	inactive
Cn1cc(-c2csc(-c3cn(CCN4CCOCC4)c4ccc(F)cc34)n2)c2cccnc21	inactive
COc1cc(C=Nc2cccc(C(=O)O)c2)ccc1N(CCCl)CCCl	inactive
[Cl][Hg][c]1cc[c]([Hg][Cl])o1	active
Oc1ccc2c3c1OC1[C@@H](O)CC[C@@]4(O)[C@@H](C2)N(CC2CCC2)CC[C@]314 (stereo not given in full)	inactive
COc1cc(/C=C/[N+](=O)[O-])cc(OC)c1	active
CCOC(=O)[C@@H](C)C[C@H](Cc1ccccc1)NC(=O)c1csc([C@@H](C[C@H](C(C)C)N(C)C(=O)[C@@H](NC(=O)[C@H]2C[C@H](O)CCN2C)C(C)C)OC(C)=O)n1	inactive
CCC(CC)CC1(C)CC2(C)CCOC2OO1 (stereo not given)	inactive
CC(=O)O[C@H](C[C@H](C(C)C)N(C)C(=O)[C@@H](NC(=O)[C@H]1CCCCN1C)C(C)C)c1nc(C(=O)N[C@@H](Cc2ccccc2)C[C@H](C)C(=O)O)c(CCOCc2ccccc2)s1	active
CCC(=O)Nc1ccc(Cl)c(Cl)c1	inactive
CC(=O)O[C@H](C[C@H](C(C)C)N(C)C(=O)[C@@H](NC(=O)[C@H]1CCCCN1C)C(C)C)c1cccc(C(=O)N[C@@H](Cc2ccccc2)C[C@H](C)C(=O)O)n1	inactive
C[C@]12C[C@@H](CO)[C@H](O)C[C@@H]1CC[C@@H]1[C@@H]2CC[C@]2(C)[C@@H](O)CC[C@@H]12	inactive
ClCCN(CCCl)c1ccc(/C=N\N=C\c2ccc(N(CCCl)CCCl)cc2)cc1	inactive
CC(=O)O[C@H]1C(=O)[C@@]2(C)[C@H]([C@H](OC(=O)c3ccccc3)[C@]3(O)C[C@H](OC(=O)[C@H](OC(=O)OC[C@@H]4COC(C)(C)O4)[C@@H](NC(=O)c4ccccc4)c4ccccc4)C(C)=C1C3(C)C)[C@]1(OC(C)=O)CO[C@@H]1C[C@@H]2O	inactive
CC(=O)O[C@H]1C(=O)[C@@]2(C)[C@H]([C@H](OC(=O)c3ccccc3)[C@]3(O)C[C@H](OC(=O)[C@H](OC(=O)OC[C@H]4COC(C)(C)O4)[C@@H](NC(=O)c4ccccc4)c4ccccc4)C(C)=C1C3(C)C)[C@]1(OC(C)=O)CO[C@@H]1C[C@@H]2O	inactive

* * *

- Tested on: NCI-H460 lung
- assayProcedure: NCI-60 one-dose screen, 48 h
- cond: 10 µM unless noted
About 83,000 compounds went through this panel and 20% of them were active in at least one assay; those are over-represented in the sample as a whole. Active and inactive are the calls of the source. The calls were made as follows: active = growth percent below 10; inactive = the rest.
Outcome codes: active, inactive

molecule	className
Cc1cccc(N2CCN(C(C)C#N)CC2)c1 (configuration not stated)	inactive
C[C@@H]1C[C@@]2(C)[C@@H](CC[C@@H]3[C@@H]2CC[C@]2(C)C(=O)CC[C@@H]32)CC1=O	inactive
CC[C@H](C)[C@H](NC(=O)C12C3C4C1C1C2C3C41NC(C)=O)C(=O)N(C)[C@H](C[C@@H](OC(C)=O)c1nc(C(=O)N[C@@H](Cc2ccccc2)C[C@H](C)C(=O)OC)cs1)C(C)C (some centres not stated)	active
CN1CC(CNC(=O)OCc2ccccc2)CC2c3cccc4c3c(cn4C)CC21 (configuration not stated)	inactive
CC1(C)N=C(N)N=C(N)N1c1ccc(OCCCNC(=O)Nc2ccc(S(=O)(=O)F)cc2)c(Cl)c1	inactive
C1CCC([PH+](C2CCCCC2)C2CCCCC2[PH+](C2CCCCC2)C2CCCCC2)CC1.O=C(C1[CH-]CCCC1)C1CCCC[N-]1.[Au] (configuration not stated)	active
COC(=O)[C@@]1(O)C[C@H]2O[C@]1(C)n1c3ccccc3c3c4c(c5c6ccccc6n2c5c31)C(=O)NC4	active
O=C1C(Cl)=C(N2CCOCC2)C(=O)c2ccccc21	inactive
C=CC[Se]C(=O)c1ccccc1OC(C)=O	active
CC[C@H](C)[C@H](NC(=O)[C@H]1CCCCN1C)C(=O)N(C)[C@H](C[C@@H](O)c1nc(C(=O)N[C@@H](Cc2ccccc2)C[C@H](C)C(=O)O)cs1)C(C)C	inactive
CC1=C(CNO)C2=C(C)C3(CC3)[C@@](C)(O)C(=O)C2=C1	active
CC[C@H](C)[C@H](NC(=O)N[C@@H](C)c1ccccc1)C(=O)N(C)[C@H](C[C@@H](OC(C)=O)c1nc(C(=O)N[C@@H](Cc2ccccc2)C[C@H](C)C(=O)OC)cs1)C(C)C	active
COC(=O)C12CC(NC(=O)c3csc([C@@H](C[C@H](C(C)C)N(C)C(=O)[C@@H](NC(=O)[C@H]4CCCCN4C)C4CC4)OC(C)=O)n3)(C1)C2	active
CCn1cnc2c(Nc3cccc(Cl)c3)nc(N[C@@H]3CCCC[C@@H]3N)nc21	active
CC(C)[C@]12O[C@H]1[C@@H]1O[C@]13[C@]1(O[C@H]1C[C@H]1c4c(C(=O)c5ccccc5)oc(OC(=O)c5ccccc5)c4CC[C@@]13C)[C@@H]2O	active
COc1cc(/C=C/[N+](=O)[O-])cc(OC)c1	inactive
CCC[CH2][Sn]([CH2]CCC)([CH2]CCC)[O]c1ccc(Cl)cc1Cl	active

* * *

- Tested on: MOLT-4 leukemia
- assayProcedure: NCI-60 one-dose screen, 48 h
- cond: 10 µM unless noted
- Description: Growth inhibition of the MOLT-4 human tumor cell line is measured as a screen for anti-cancer activity. Cells are grown in 96 well plates and exposed to the test compound for 48 hours. Compounds are tested at a single concentration, which is 10^-5 M for most compounds. The reported endpoint is percent growth (GI% or GIPRCNT), where numbers from 0 - 100% represent growth inhibition, and numbers from -100% - 0 represent cell death. For example, a value of 40 represents 60% growth inhibition. […]
Compounds without any hit were thinned out: in the full panel of roughly 83,000, 20% have a hit. Active and inactive are the calls of the source. How the source made its calls: active means growth percent below 10; inactive means the rest.
Outcome codes: active, inactive

molecule	className
Cn1cc(C2=C(c3cn(C4CCN(Cc5ccccn5)CC4)c4ccccc34)C(=O)NC2=O)c2ccccc21	inactive
NC1CC2CCCCC2CC1(O)c1ccccc1 (stereo unspecified)	inactive
C[N+]12CN3CN(CN(C3)C1)C2	inactive
O=[N+]([O-])CC(c1ccccc1Cl)c1c(-c2ccccc2)[nH]c2ccccc12 (stereo unspecified)	inactive
CN1C(=O)N[C@H]2[C@@H]3NC(=O)c4ccc(Br)n4[C@@H]3C[C@]21O	active
O=C1N[C@@H]2[C@@H](O)[C@@H](O)[C@H](O)C[C@H]2c2cc3c(c(O)c21)OCO3	active
O=C(Nc1ccc(Br)cc1)c1cc(Br)cc(Br)c1O	inactive
CCCCCCC(=O)NC1=C(N2CC2)C(=O)C(NC(=O)CCCCCC)=C(N2CC2)C1=O	inactive
CCOC(=O)CCC(NC(=O)C(Cc1ccc(N(CCCl)CCCl)cc1)NC=O)C(=O)OCC (stereo unspecified)	active
NC(=Nc1ccccc1)N[N+](=O)[O-]	inactive
O=C(CC1(O)C(=O)Nc2ccc(Cl)cc21)c1ccc(C(=O)NCC2CCC3(CC2)OOC2(CCCCC2)OO3)cc1 (stereo unspecified)	active
Cc1ccc(C(=O)NCCCOc2ccc(N3C(N)=NC(N)=NC3(C)C)cc2Cl)cc1S(=O)(=O)F	inactive
COc1cccc2c1c(C(=O)c1ccco1)cn2Cc1ccc(F)cc1	inactive
CCOC(=O)[C@@H](C)C[C@H](Cc1ccccc1)NC(=O)c1csc([C@@H](C[C@H](C(C)C)N(C)C(=O)[C@@H](NC(=O)[C@H]2C[C@H](O)CCN2C)C(C)C)OC(C)=O)n1	inactive
COC(=O)[C@@H](NC(=O)c1cn(CCC2CCCCC2)c2ccccc12)C(C)(C)C	inactive
Clc1cccc(Cl)c1Cl	inactive
CC1=C(CN)C2=C(C)C3(CC3)[C@@](C)(O)C(=O)C2=C1	inactive
O=[N+]([O-])c1cnc[nH]1	inactive
CC12CCC(O)CC1=CCC1C2CCC2(C)C(O)CCC12 (stereo unspecified)	inactive
CC(=O)O[C@@H]1CC[C@]2(C)[C@H]3CC[C@]4(C)C(=O)CC[C@H]4[C@@H]3C[C@@H]3SC(N)=N[C@@]32C1	inactive
CNC(=O)Oc1cccc(C(F)(F)F)c1	inactive

* * *

Quick list: growth per entry.
- Tested on: SK-MEL-5 melanoma
- assayProcedure: NCI-60 one-dose screen, 48 h (100 = growth as untreated, 0 = no growth, -100 = all killed)
- cond: 10 µM unless noted
This is part of a sample that, as a whole, favours compounds with a hit. Of some 83,000 tested, about 20% had one in any assay.
outcomeMeasure: growth (%)

compound	outcomeMeasure	resultValue
Fc1ccc(C2=CCNCC2)cc1	growth	91.9
COc1ccc(Nc2ccnc3cc(Cl)ccc23)cc1CN(CCCl)CCCl	growth	-88.4
C[C@]12C[C@@H](CO)[C@H](O)C[C@@H]1CC[C@@H]1[C@@H]2CC[C@]2(C)[C@@H](O)CC[C@@H]12	growth	103
O=C(O)c1ccc([S-])cc1.[Au+].c1ccc(CN2[CH-]N(Cc3ccccc3)C(c3ccccc3)=C2c2ccccc2)cc1	growth	-92.9
Cc1c(NS(=O)(=O)c2ccccc2)ccc([N+](=O)[O-])c1Cl	growth	25.8
ClCCN(CCCl)c1ccc(-n2cnc3c(Cl)ncnc32)cc1	growth	86.3
C[C@@]1(CCCCCCCCCc2ccc(O)cc2)C[C@]2(C)OC(=O)C[C@@H]2OO1	growth	105
COC(=O)CCc1c[nH]c2ccc(N(CCCl)CCCl)cc12	growth	52
CC[C@H](C)[C@H](NC(=O)[C@H]1CCCCN1C)C(=O)N(C)[C@H](C[C@@H](OC(C)=O)c1cccc(C(=O)N[C@@H](Cc2ccccc2)C[C@H](C)C(=O)O)n1)C(C)C	growth	-24.5
C1CCC([PH+](C2CCCCC2)C2CCCCC2[PH+](C2CCCCC2)C2CCCCC2)CC1.[Au].[CH-]1CCCCC1CC1CCCC[N-]1 (stereo not drawn)	growth	-99.8
Oc1c(CCl)cc(Cl)cc1CCl	growth	104
C[C@@H]1CCC2[C@@H](C)[C@H](OC(=O)CCC(=O)NCCNC(=O)Cc3cc(=O)oc4cc(N(C)C)ccc34)O[C@@H]3O[C@]4(C)CC[C@@H]1C23OO4 (stereo partly drawn)	growth	33.2
O=C1C(=Cc2cn(Cc3ccccc3)c3ccccc23)C(=O)N(Cc2ccccc2)C(=O)N1Cc1ccccc1	growth	104
CC(C)=CCC[C@H](C(=O)O)[C@@H]1CC[C@]2(C)C3=C(CC[C@@]12C)[C@@]1(C)CC[C@H](O)C(C)(C)[C@@H]1CC3	growth	103
COc1ccc2c(c1)c(-c1nc(-c3c[nH]c4ncccc34)cs1)cn2CCCCN1CCCCC1	growth	-81.3
CNC12C3C4C1C1C2C3C41C(=O)N[C@H](C(=O)N(C)[C@H](C[C@@H](OC(C)=O)c1nc(C(=O)N[C@@H](Cc2ccccc2)C[C@H](C)C(=O)OC)cs1)C(C)C)C1CC1 (stereo partly drawn)	growth	-54.4
Cc1cc(N(CCCl)CCCl)ccc1C=Nc1ccccc1-c1ccccc1	growth	85.7
Nc1ccc2c(c1)oc1ccccc12	growth	104
